Measured Ki by item
Molecular target: recombinant α-synuclein fibrils (Homo sapiens, UniProt P37840)
Assay: radioactive competitive binding assay with [^3H]BF2846 (Tables 1 and 2: or [^18F]7j with LBD-amplified fibrils)
Conditions: Table 1; vs. [^3H]BF2846 or [^18F]7j as radioligand; NB = no binding affinity measurable; read-out: Ki
Experimental: Three concentrations of the test compounds (10 nM, 100 nM, and 1 μM) were selected and individually mixed with [^3H]BF2846 (∼4 nM). […] Next, 50 μL of scintillation cocktail (MicroScint-20, PerkinElmer) was added to the collected filtrate and counted on a Microbeta system (PerkinElmer Inc., Waltham, MA, USA). The total binding was measured in the absence of the tested compounds, and non-specific binding was defined by the presence of 100 nM of unlabeled BF2846 in the working buffer. […]

Worked cases, answers included:
MOLECULE	Ki
COc1ccc(Nc2ccc3cnccc3c2)cn1 [Compound 3e]	46 nM
COc1ccc(Nc2ccc3cccnc3c2)cn1 [Compound 3g]	> 1000 nM
COc1ccc(Nc2ccc3ccccc3n2)cn1 [Compound 3a]	~100 nM
COc1ccc(Nc2ccc3ccncc3c2)cn1 [Compound 3f]	> 1000 nM
COc1ccc(Nc2cnc3ccccc3c2)cn1 [Compound 3c]	418 nM

Alright, here's another molecule for you.
Q: Using known records, supply Ki for COc1ccc(Nc2ccc3ncccc3c2)cn1 [Compound 3d]
Ans: > 1000 nM
